biological target: Delta-type opioid receptor (Homo sapiens); experiment: Displacement of [3H]naltrindole from human delta opioid receptor expressed in CHO cells
Sequence (P41143 whole entry): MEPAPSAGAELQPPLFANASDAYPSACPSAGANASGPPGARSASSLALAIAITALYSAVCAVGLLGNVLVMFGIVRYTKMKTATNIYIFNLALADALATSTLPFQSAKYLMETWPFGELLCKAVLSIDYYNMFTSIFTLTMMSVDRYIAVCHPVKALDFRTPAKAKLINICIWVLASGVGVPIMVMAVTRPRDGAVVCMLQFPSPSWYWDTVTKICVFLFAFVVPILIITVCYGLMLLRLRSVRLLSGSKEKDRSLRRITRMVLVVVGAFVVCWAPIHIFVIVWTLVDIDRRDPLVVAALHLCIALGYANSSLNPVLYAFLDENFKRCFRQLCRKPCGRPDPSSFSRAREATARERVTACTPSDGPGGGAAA
pKi: −log10 of the molar value.
pKi of 6 or higher: 1 (yes). Under 6: 0 (no).

compound | classification
C[C@H]1C2Cc3ccc(C(N)=O)c(N)c3[C@@]1(C)CCN2CC1CC1 (mixture of isomers) | 1 (yes)
C[C@H]1C2Cc3ccc(C(N)=O)c([N+](=O)[O-])c3[C@@]1(C)CCN2CC1CC1 (mixture of isomers) | 1 (yes)
C[C@H]1C2Cc3ccc4c(N)ncnc4c3[C@@]1(C)CCN2CC1CC1 (mixture of isomers) | 1 (yes)
C[C@H]1C2Cc3cc4ncnc(NCCc5ccc(-c6ccccc6)cc5)c4cc3[C@@]1(C)CCN2CC1CC1 (mixture of isomers) | 1 (yes)
C[C@H]1C2Cc3ccc(O)c([N+](=O)[O-])c3[C@@]1(C)CCN2CC1CC1 (mixture of isomers) | 0 (no)
C[C@H]1C2Cc3cc4ncnc(N)c4cc3[C@@]1(C)CCN2CC1CC1 (mixture of isomers) | 0 (no)

###

molecular target: Kappa-type opioid receptor (Homo sapiens, UniProt P41145); assay: Displacement of [3H]U69,593 from human kappa opioid receptor expressed in CHO cells; assay type: cell-based
Sequence (P41145 whole entry): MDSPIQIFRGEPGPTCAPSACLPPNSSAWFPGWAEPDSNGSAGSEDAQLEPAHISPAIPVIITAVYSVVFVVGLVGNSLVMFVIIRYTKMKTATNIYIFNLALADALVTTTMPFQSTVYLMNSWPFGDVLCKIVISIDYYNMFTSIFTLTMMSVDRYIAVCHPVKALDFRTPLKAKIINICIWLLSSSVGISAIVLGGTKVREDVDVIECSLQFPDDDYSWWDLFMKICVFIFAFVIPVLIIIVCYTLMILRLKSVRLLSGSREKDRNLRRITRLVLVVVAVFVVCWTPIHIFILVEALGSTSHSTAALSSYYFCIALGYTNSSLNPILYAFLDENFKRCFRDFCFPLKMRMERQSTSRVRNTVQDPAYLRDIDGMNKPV

compound | Ki, nM
C[C@H]1C2Cc3ccc4c(N)ncnc4c3[C@@]1(C)CCN2CC1CC1 (mixture of isomers) | 1
C[C@H]1C2Cc3cc4ncnc(N)c4cc3[C@@]1(C)CCN2CC1CC1 (mixture of isomers) | 560
C[C@H]1C2Cc3cc([N+](=O)[O-])c(C(N)=O)cc3[C@@]1(C)CCN2CC1CC1 (mixture of isomers) | 110
C[C@H]1C2Cc3cc4ncnc(NCc5ccccc5)c4cc3[C@@]1(C)CCN2CC1CC1 (mixture of isomers) | 48

###

biological target: Mu-type opioid receptor (Homo sapiens)
Sequence (P35372 whole entry): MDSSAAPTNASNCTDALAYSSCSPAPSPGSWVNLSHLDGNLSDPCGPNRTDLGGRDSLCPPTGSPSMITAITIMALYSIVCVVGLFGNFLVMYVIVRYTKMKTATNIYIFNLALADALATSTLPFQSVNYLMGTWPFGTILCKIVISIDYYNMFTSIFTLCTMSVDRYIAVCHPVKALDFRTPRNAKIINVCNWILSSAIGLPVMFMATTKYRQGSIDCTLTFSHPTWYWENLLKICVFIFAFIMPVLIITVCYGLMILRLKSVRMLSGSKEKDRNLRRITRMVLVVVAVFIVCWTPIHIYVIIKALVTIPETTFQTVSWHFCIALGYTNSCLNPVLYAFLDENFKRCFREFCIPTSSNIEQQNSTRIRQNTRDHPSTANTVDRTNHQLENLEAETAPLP
Param label: returns label 1 when Ki < 0.03 µM, returns label 0 otherwise, including exact equality.

molecule | tested.on | classification
C[C@H]1C2Cc3cc4ncnc(NCc5ccccc5)c4cc3[C@@]1(C)CCN2CC1CC1 (mixture of isomers) | Mu-type opioid receptor (Homo sapiens) | label 0
C[C@H]1C2Cc3ccc4c(NCCc5ccc(-c6ccccc6)cc5)ncnc4c3[C@@]1(C)CCN2CC1CC1 (mixture of isomers) | Mu-type opioid receptor (Homo sapiens) | label 1
C[C@H]1C2Cc3ccc(O)c([N+](=O)[O-])c3[C@@]1(C)CCN2CC1CC1 (mixture of isomers) | Mu-type opioid receptor (Homo sapiens) | label 0
C[C@H]1C2Cc3cc4cc[nH]c(=O)c4cc3[C@@]1(C)CCN2CC1CC1 (mixture of isomers) | Mu-type opioid receptor (Homo sapiens) | label 1
C[C@H]1C2Cc3cc([N+](=O)[O-])c(C(N)=O)cc3[C@@]1(C)CCN2CC1CC1 (mixture of isomers) | Mu-type opioid receptor (Homo sapiens) | label 0
C[C@H]1C2Cc3cc4ncnc(NCCc5ccc(-c6ccccc6)cc5)c4cc3[C@@]1(C)CCN2CC1CC1 (mixture of isomers) | Mu-type opioid receptor (Homo sapiens) | label 1
C[C@H]1C2Cc3ccc4c(NCc5ccccc5)ncnc4c3[C@@]1(C)CCN2CC1CC1 (mixture of isomers) | Mu-type opioid receptor (Homo sapiens) | label 0

###

Reported pEC50 values follow for various compounds
molecular target: Kappa-type opioid receptor (Homo sapiens, UniProt P41145); assay: Activity at human kappa opioid receptor expressed in CHO cells assessed as stimulation of [35S]GTPgammaS binding
pEC50: −log10 of the molar value.
assay.metric: pEC50

compound | recorded.result
C[C@H]1C2Cc3cc4cc[nH]c(=O)c4cc3[C@@]1(C)CCN2CC1CC1 (mixture of isomers) | 7.22
C[C@H]1C2Cc3ccc(C(N)=O)c(N)c3[C@@]1(C)CCN2CC1CC1 (mixture of isomers) | 7.82
